Test system: HeLa Kyoto
PROTOCOL DETAILS: melting temperature (median over replicates), in situ; higher = more thermally stable
CONDITIONS USED: cell cycle stage: mitosis
PROPERTY LABEL: melting temperature (°C)
Give the quantity in °C, number only.

Reference set (10 entries):
>  <SEQUENCE DATA>
MATAALLRGATPGRGGPVWRWRLRAAPRCRLAHSSCSPGGDPTAGAAWACFRLDGRTLLRVRGPDAAPFLLGLLTNELPLPSPAAAGAPPAARAGYAHFLNVQGRTLYDVILYGLQEHSEVSGFLLECDSSVQGALQKHLALYRIRRKVTVEPHPELRVWAVLPSSPEACGAASLQERAGAAAILIRDPRTARMGWRLLTQDEGPALVPGGRLGDLWDYHQHRYLQGVPEGVRDLPPGVALPLESNLAFMNGVSFTKGCYIGQELTARTHHMGVIRKRLFPVRFLDPLPTSGITPGATVLTASGQTVGKFRAGQGNVGLALLWSEKIKGPLHIRASEGAQVALAASVPDWWPTVSK [IBA57]

>  <RESULT UNIT>
°C

>  <melting temperature>
52.4

$$$$
>  <SEQUENCE DATA>
MSAHNRGTELDLSWISKIQVNHPAVLRRAEQIQARRTVKKEWQAAWLLKAVTFIDLTTLSGDDTSSNIQRLCYKAKYPIREDLLKALNMHDKGITTAAVCVYPARVCDAVKALKAAGCNIPVASVAAGFPAGQTHLKTRLEEIRLAVEDGATEIDVVINRSLVLTGQWEALYDEIRQFRKACGEAHLKTILATGELGTLTNVYKASMIAMMAGSDFIKTSTGKETVNATFPVAIVMLRAIRDFFWKTGNKIGFKPAGGIRSAKDSLAWLSLVKEELGDEWLKPELFRIGASTLLSDIERQIYHHVTGRYAAYHDLPMS [DERA]

>  <RESULT UNIT>
°C

>  <melting temperature>
56.1

$$$$
>  <SEQUENCE DATA>
MAAPGSCALWSYCGRGWSRAMRGCQLLGLRSSWPGDLLSARLLSQEKRAAETHFGFETVSEEEKGGKVYQVFESVAKKYDVMNDMMSLGIHRVWKDLLLWKMHPLPGTQLLDVAGGTGDIAFRFLNYVQSQHQRKQKRQLRAQQNLSWEEIAKEYQNEEDSLGGSRVVVCDINKEMLKVGKQKALAQGYRAGLAWVLGDAEELPFDDDKFDIYTIAFGIRNVTHIDQALQEAHRVLKPGGRFLCLEFSQVNNPLISRLYDLYSFQVIPVLGEVIAGDWKSYQYLVESIRRFPSQEEFKDMIEDAGFHKVTYESLTSGIVAIHSGFKL [COQ5]

>  <RESULT UNIT>
°C

>  <melting temperature>
56.3

$$$$
>  <SEQUENCE DATA>
MPVKGGTKCIKYLLFGFNFIFWLAGIAVLAIGLWLRFDSQTKSIFEQETNNNNSSFYTGVYILIGAGALMMLVGFLGCCGAVQESQCMLGLFFGFLLVIFAIEIAAAIWGYSHKDEVIKEVQEFYKDTYNKLKTKDEPQRETLKAIHYALNCCGLAGGVEQFISDICPKKDVLETFTVKSCPDAIKEVFDNKFHIIGAVGIGIAVVMIFGMIFSMILCCAIRRNREMV [CD9]

>  <RESULT UNIT>
°C

>  <melting temperature>
60.4

$$$$
>  <SEQUENCE DATA>
MLGLLVALLALGLAVFALLDVWYLVRLPCAVLRARLLQPRVRDLLAEQRFPGRVLPSDLDLLLHMNNARYLREADFARVAHLTRCGVLGALRELRAHTVLAASCARHRRSLRLLEPFEVRTRLLGWDDRAFYLEARFVSLRDGFVCALLRFRQHLLGTSPERVVQHLCQRRVEPPELPADLQHWISYNEASSQLLRMESGLSDVTKDQ [THEM6]

>  <RESULT UNIT>
°C

>  <melting temperature>
53.8

$$$$
>  <SEQUENCE DATA>
MAAVVVAAAGGAGPAVLQVAGLYRGLCAVRSRALGLGLVSPAQLRVFPVRPGSGRPEGGADSSGVGAEAELQANPFYDRYRDKIQLLRRSDPAAFESRLEKRSEFRKQPVGHSRQGDFIKCVEQKTDALGKQSVNRGFTKDKTLSSIFNIEMVKEKTAEEIKQIWQQYFAAKDTVYAVIPAEKFDLIWNRAQSCPTFLCALPRREGYEFFVGQWTGTELHFTALINIQTRGEAAASQLILYHYPELKEEKGIVLMTAEMDSTFLNVAEAQCIANQVQLFYATDRKETYGLVETFNLRPNEFKYMSVIAELEQSGLGAELKCAQNQNKT [ATPAF1]

>  <RESULT UNIT>
°C

>  <melting temperature>
51.5

$$$$
>  <SEQUENCE DATA>
MDCGSVGGQRTQRLPGRQRLLFLPVGLSGRPGGSETSARRCLSALSDGLGALRPRAPAARGGVSRASPLLLLLLVPSPRLAAAAPRRQLGDWERSRLGYAAPPAGRSSAWRCSPGVAAAAGALPQYHGPAPALVSCRRELSLSAGSLQLERKRRDFTSSGSRKLYFDTHALVCLLEDNGFATQQAEIIVSALVKILEANMDIVYKDMVTKMQQEITFQQVMSQIANVKKDMIILEKSEFSALRAENEKIKLELHQLKQQVMDEVIKVRTDTKLDFNLEKSRVKELYSLNEKKLLELRTEIVALHAQQDRALTQTDRKIETEVAGLKTMLESHKLDNIKYLAGSIFTCLTVALGFYRLWI [MCUR1]

>  <RESULT UNIT>
°C

>  <melting temperature>
52

$$$$
>  <SEQUENCE DATA>
MEGLVVAAGGDVSLHNFSARLWEQLVHFHVMRLTDSLFLWVGATPHLRNLAVAMCSRYDSIPVSTSLLGDTSDTTSTGLAQRLARKTNKQVFVSYNLQNTDSNFALLVENRIKEEMEAFPEKF [PSMG4]

>  <RESULT UNIT>
°C

>  <melting temperature>
54.1

$$$$
>  <SEQUENCE DATA>
MAGPGPGPGDPDEQYDFLFKLVLVGDASVGKTCVVQRFKTGAFSERQGSTIGVDFTMKTLEIQGKRVKLQIWDTAGQERFRTITQSYYRSANGAILAYDITKRSSFLSVPHWIEDVRKYAGSNIVQLLIGNKSDLSELREVSLAEAQSLAEHYDILCAIETSAKDSSNVEEAFLRVATELIMRHGGPLFSEKSPDHIQLNSKDIGEGWGCGC [RAB43]

>  <RESULT UNIT>
°C

>  <melting temperature>
54.6

$$$$
>  <SEQUENCE DATA>
MNPTLILAAFCLGIASATLTFDHSLEAQWTKWKAMHNRLYGMNEEGWRRAVWEKNMKMIELHNQEYREGKHSFTMAMNAFGDMTSEEFRQVMNGFQNRKPRKGKVFQEPLFYEAPRSVDWREKGYVTPVKNQGQCGSCWAFSATGALEGQMFRKTGRLISLSEQNLVDCSGPQGNEGCNGGLMDYAFQYVQDNGGLDSEESYPYEATEESCKYNPKYSVANDTGFVDIPKQEKALMKAVATVGPISVAIDAGHESFLFYKEGIYFEPDCSSEDMDHGVLVVGYGFESTESDNNKYWLVKNSWGEEWGMGGYVKMAKDRRNHCGIASAASYPTV [CTSL]

>  <RESULT UNIT>
°C

>  <melting temperature>
55

$$$$

API: value(readout= melting temperature, system= HeLa Kyoto, query= MGLETEKADVQLFMDDDSYSHHSGLEYADPEKFADSDQDRDPHRLNSHLKLGFEDVIAEPVTTHSFDKVWICSHALFEISKYVMYKFLTVFLAIPLAFIAGILFATLSCLHIWILMPFVKTCLMVLPSVQTIWKSVTDVIIAPLCTSVGRCFSSVSLQLSQD [CAV2] )
56.9

====

Test system: HeLa Kyoto
PROTOCOL DETAILS: solubility in G1/S (NP-40 vs SDS abundance) (log2 ratio); higher = more soluble
CONDITIONS USED: cell cycle stage: G1/S
Some sequences, each annotated with its measured solubility in G1/S (log2).
I'd appreciate a reply containing only the number, no unit.

Reference set (4 entries):
>  <SEQUENCE DATA>
MASSSGSKAEFIVGGKYKLVRKIGSGSFGDIYLAINITNGEEVAVKLESQKARHPQLLYESKLYKILQGGVGIPHIRWYGQEKDYNVLVMDLLGPSLEDLFNFCSRRFTMKTVLMLADQMISRIEYVHTKNFIHRDIKPDNFLMGIGRHCNKLFLIDFGLAKKYRDNRTRQHIPYREDKNLTGTARYASINAHLGIEQSRRDDMESLGYVLMYFNRTSLPWQGLKAATKKQKYEKISEKKMSTPVEVLCKGFPAEFAMYLNYCRGLRFEEAPDYMYLRQLFRILFRTLNHQYDYTFDWTMLKQKAAQQAASSSGQGQQAQTPTGKQTDKTKSNMKGF [CSNK1A1]

>  <solubility in G1/S (log2)>
-0.00541

$$$$
>  <SEQUENCE DATA>
MANSGCKDVTGPDEESFLYFAYGSNLLTERIHLRNPSAAFFCVARLQDFKLDFGNSQGKTSQTWHGGIATIFQSPGDEVWGVVWKMNKSNLNSLDEQEGVKSGMYVVIEVKVATQEGKEITCRSYLMTNYESAPPSPQYKKIICMGAKENGLPLEYQEKLKAIEPNDYTGKVSEEIEDIIKKGETQTL [GGCT]

>  <solubility in G1/S (log2)>
0.302

$$$$
>  <SEQUENCE DATA>
MATAALLRGATPGRGGPVWRWRLRAAPRCRLAHSSCSPGGDPTAGAAWACFRLDGRTLLRVRGPDAAPFLLGLLTNELPLPSPAAAGAPPAARAGYAHFLNVQGRTLYDVILYGLQEHSEVSGFLLECDSSVQGALQKHLALYRIRRKVTVEPHPELRVWAVLPSSPEACGAASLQERAGAAAILIRDPRTARMGWRLLTQDEGPALVPGGRLGDLWDYHQHRYLQGVPEGVRDLPPGVALPLESNLAFMNGVSFTKGCYIGQELTARTHHMGVIRKRLFPVRFLDPLPTSGITPGATVLTASGQTVGKFRAGQGNVGLALLWSEKIKGPLHIRASEGAQVALAASVPDWWPTVSK [IBA57]

>  <solubility in G1/S (log2)>
-0.246

$$$$
>  <SEQUENCE DATA>
MAVTLSLLLGGRVCAAVTRCGFATRGVAGPGPIGREPDPDSDWEPEERELQEVESTLKRQKQAIRFQKIRRQMEAPGAPPRTLTWEAMEQIRYLHEEFPESWSVPRLAEGFDVSTDVIRRVLKSKFLPTLEQKLKQDQKVLKKAGLAHSLQHLRGSGNTSKLLPAGHSVSGSLLMPGHEASSKDPNHSTALKVIESDTHRTNTPRRRKGRNKEIQDLEESFVPVAAPLGHPRELQKYSSDSESPRGTGSGALPSGQKLEELKAEEPDNFSSKVVQRGREFFDSNGNFLYRI [NGRN]

>  <solubility in G1/S (log2)>
0.784

$$$$

Entry MERKRWECPALPQGWEREEVPRRSGLSAGHRDVFYYSPSGKKFRSKPQLARYLGGSMDLSTFDFRTGKMLMSKMNKSRQRVRYDSSNQVKGKPDLNTALPVRQTASIFKQPVTKITNHPSNKVKSDPQKAVDQPRQLFWEKKLSGLNAFDIAEELVKTMDLPKGLQGVGPGCTDETLLSAIASALHTSTMPITGQLSAAVEKNPGVWLNTTQPLCKAFMVTDEDIRKQEELVQQVRKRLEEALMADMLAHVEELARDGEAPLDKACAEDDDEEDEEEEEEEPDPDPEMEHV [MBD3] : reported solubility in G1/S (log2) = ?
0.334
